Examples of binders with documented kon follow.
# TESTED_TARGET: T1, Human SIRPαV2 (CAA71403.1), Extracellular Domain + His-Tag (human, UniProt P78324 31-373)
# T1 construct: also called huSIRPαV2; hSIRPαV2; not shown: His-Tag
# T1 sequence (P78324 other isoform, or with tags, fused parts or gaps): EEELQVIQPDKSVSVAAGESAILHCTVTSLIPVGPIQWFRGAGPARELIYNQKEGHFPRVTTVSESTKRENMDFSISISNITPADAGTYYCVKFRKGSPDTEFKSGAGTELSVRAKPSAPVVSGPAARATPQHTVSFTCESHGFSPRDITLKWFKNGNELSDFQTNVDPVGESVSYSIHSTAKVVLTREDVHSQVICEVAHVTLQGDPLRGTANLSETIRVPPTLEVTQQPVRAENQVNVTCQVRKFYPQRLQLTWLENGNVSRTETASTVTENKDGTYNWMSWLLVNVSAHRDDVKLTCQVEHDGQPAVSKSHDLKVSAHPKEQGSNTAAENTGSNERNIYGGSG
# PROTOCOL_DETAILS: SPR, antibody captured on Protein A/G, ECD-His analyte, 1:1 fit
Dear colleague, please return just the value in M⁻¹ s⁻¹, with no unit written.

binder="Antibody A1 (antibody, human IgG1, kappa, L234A L235A, V domains shown) VH: EVQLVESGGGLVQPGGSLRLSCAASGFTLSSYDMHWVRQAPGKGLEWVSAIGTAGDTYYTGSVKGRFTISRENAKNSLYLQMNSLRADDTAVYYCVRGGVWDDAFDIWGQGTMVTVSS VL: DIQMTQSPSSLSASVGDRVTITCRASQGINNYAAWFQQKPGKAPKSLIYTASSLHSGVPSKFSGSGSGTDFTLTISSLQPEDFATYYCQQYVSYPYTFGQGTKLEIKR" units="M⁻¹ s⁻¹" experimental_result=869000

Then there is this binder:
Report kon for Antibody E17 (antibody, human IgG1, kappa, L234A L235A, V domains shown) VH: QVQLQESGPGLVRPSETLSLTCTVSGGSIRNYYWSWIRQPPGKGLEWMGFIYDNGRTFYNPSLKSRVTISLDMSMNQFSLKMTSVTAADTAVYYCARVRAYSGIGLDGTDVWGQGTTVTVSS VL: DIVMTQSPLSLPVTPGEPASISCKSSQSLLYSNAYNYLDWYLQRPGQSPQLLIYLGSNRASGVPDRFSGSGSGTDFTLKISRVEAEDVGVYYCMQALQTPLTFGGGTKVEIKR please.
508000

The values you see were collected from patent US20230012273A1.
